These entries and their values trace back to the RNAGym collection of RNA variant scans (doi:10.1002/anie.201605470).

Please provide measured self-cleavage for the entries that follow.
B1: Osa-1-4 twister ribozyme (parent)
chain: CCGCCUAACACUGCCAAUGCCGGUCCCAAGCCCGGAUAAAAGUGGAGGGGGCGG

Variants of: B1
measurement_protocol: self-cleavage, relative activity (ratio to wild type); higher = more cleavage; co-transcriptional
Give bare numbers.

Worked examples follow.
G13C G35A ... 0.02
A38G U18C ... 0.97
A36C G50C ... 0.22
C26A U18G ... 0.12
A41G C27A ... 0.09
C26A G47A ... 0.03
A17C G54A ... 0.9
A29G G54A ... 0.15
A10C G30C ... 0.01
A41U G50U ... 1.03

Please state, for each entry, its recorded self-cleavage.
1. A41U U12C
2. A10U A39G

1: 0.91; 2: 0.08
